Conditions: Liquid; Ebulliometric method (Recirculating still)
± gives the expanded uncertainty stated by the source.

| Compound | Normal boiling temperature |
| --- | --- |
| CC(C)O [propan-2-ol] | 82.18 ± 0.7 °C |
| CCCO [propan-1-ol] | 96.8 ± 0.7 °C |
| CC(C)OC(C)C [diisopropyl ether] | 68.57 ± 0.7 °C |
| CCOCC(C)O (centres undefined) [1-ethoxy-2-propanol] | 131.89 ± 0.7 °C |
